Test: Binding affinity to partial length human ALK 1151Tins mutant expressed in mammalian system by KINOMEscan assay
PARAMETER MEASURED: Kd (nM)
Supply the numeric figure in nM, leaving out any unit text.

Request: Which Kd value is on record for `CNC(=O)c1ccccc1Nc1nc(Nc2ccc3c(c2OC)CCC[C@H](N2CCN(CCO)CC2)C3)ncc1Cl` ?
Response: 2.6

* * *

Test: Tmax in CD-1 mouse at 10 mg/kg, po by LC/MS/MS analysis
Format: ADME, organism-based
Conditions: in vivo
PARAMETER MEASURED: Tmax
The answer consists of two parts: a number and, after it, its unit.

Request: Which Tmax value is on record for CNC(=O)c1ccccc1Nc1nc(Nc2ccc3c(c2OC)CCC[C@H](N2CCN(CCO)CC2)C3)ncc1Cl [CEP-37440] ?
Response: 2 h

* * *

Test: Clearance in CD-1 mouse at 1 mg/kg, iv by LC/MS/MS analysis
Assay type: ADME, organism-based
Conditions: in vivo
PARAMETER MEASURED: clearance (mL/min/kg)
Supply the numeric figure in mL/min/kg, leaving out any unit text.

Request: Which clearance value is on record for `CNC(=O)c1ccccc1Nc1nc(Nc2ccc3c(c2OC)CCC[C@H](N2CCN(CCO)CC2)C3)ncc1Cl` ?
Response: 10

* * *

pIC50: −log10 of the molar value.
pIC50, Voltage-gated inwardly rectifying potassium channel KCNH2 (Homo sapiens, UniProt Q12809): measured values

Completed entries (count: 2):
COc1c(Nc2ncc(Cl)c(N[C@H]3[C@@H](C(N)=O)[C@@H]4C=C[C@H]3C4)n2)ccc2c1CCC[C@H](N1CCN(C)CC1)C2 | 5.04
COc1c(Nc2ncc(Cl)c(N[C@H]3[C@@H](C(N)=O)[C@@H]4C=C[C@H]3C4)n2)ccc2c1CC[C@@H](N1CCOCC1)CC2 | < 5.00

Next up:
Request: Record lookup: for Voltage-gated inwardly rectifying potassium channel KCNH2 (Homo sapiens, UniProt Q12809), what pIC50 belongs to CNC(=O)c1ccccc1Nc1nc(Nc2ccc3c(c2OC)CCCC(N2CCN(CCO)CC2)C3)ncc1Cl (racemic) ?
Response: ≤ 5.00

* * *

Test: Tmax in cynomolgus monkey at 10 mg/kg, po by LC/MS/MS analysis
Type: ADME, organism-based, Macaca fascicularis
Details: in vivo
PARAMETER MEASURED: Tmax (h)
Supply the numeric figure in h, leaving out any unit text.

Request: Which Tmax value is on record for CNC(=O)c1ccccc1Nc1nc(Nc2ccc3c(c2OC)CCC[C@H](N2CCN(CCO)CC2)C3)ncc1Cl [CEP-37440] ?
Response: 6

* * *

Assay: Drug level in tumor of FAK expressing human CWR22 cells xenografted Nu/Nu mouse at 55 mg/kg, po administered as single dose measured at 12 hrs by LC-MS/MS analysis
Assay type: ADME, organism-based, Neoplasm
Conditions: read-out: Drug uptake
PARAMETER MEASURED: concentration at 12 h (ng/g)
Supply the numeric figure in ng/g, leaving out any unit text.

Request: Which concentration at 12 h value is on record for `CNC(=O)c1ccccc1Nc1nc(Nc2ccc3c(c2OC)CCC[C@H](N2CCN(CCO)CC2)C3)ncc1Cl` ?
Response: 3810

* * *

Test: Tmax in Sprague-Dawley rat at 5 mg/kg, po by LC/MS/MS analysis
Type: ADME, organism-based
Conditions: in vivo
PARAMETER MEASURED: Tmax (h)
Supply the numeric figure in h, leaving out any unit text.

Request: Which Tmax value is on record for `CNC(=O)c1ccccc1Nc1nc(Nc2ccc3c(c2OC)CCC[C@H](N2CCN(CCO)CC2)C3)ncc1Cl` ?
Response: 3.3

These measurements were taken from ChEMBL document CHEMBL3856231.
